Biological target: T1, Human OSM (human, UniProt P13725 26-221)
T1 construct: Recombinant human OSM; also called hOSM; human Oncostatin M
T1 sequence: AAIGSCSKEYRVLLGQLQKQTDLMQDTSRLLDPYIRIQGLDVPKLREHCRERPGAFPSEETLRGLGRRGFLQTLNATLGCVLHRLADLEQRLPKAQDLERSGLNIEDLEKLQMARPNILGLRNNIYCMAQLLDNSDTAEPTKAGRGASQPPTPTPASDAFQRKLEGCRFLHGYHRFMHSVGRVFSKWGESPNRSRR
Assay: BIAcore kinetics, transfection supernatant
property-label: kon (M⁻¹ s⁻¹)
Unit M⁻¹ s⁻¹ implied. Number only.

Sample records with kon:
binder="Humanised 10G8 H0(IGHV3-23)L1 (antibody, human IgG1, kappa, V domains shown, IgG1 kappa; also called H0(huCDRH1)L1; H0 (CDRH1 IGHV3_23) L1) VH: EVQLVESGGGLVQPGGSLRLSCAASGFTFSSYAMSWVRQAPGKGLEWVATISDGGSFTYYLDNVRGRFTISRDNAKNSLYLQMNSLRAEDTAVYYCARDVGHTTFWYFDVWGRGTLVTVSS VL: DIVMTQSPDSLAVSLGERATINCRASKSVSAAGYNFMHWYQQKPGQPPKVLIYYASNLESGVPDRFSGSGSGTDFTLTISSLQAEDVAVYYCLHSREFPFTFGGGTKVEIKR" unit_abbreviation="M⁻¹ s⁻¹" test_result=361000
binder="Humanised 10G8 H0 + L1 IGKV1_5 (antibody, V domains shown, built from the stated exchange of CDRL2; residue limits derived by me; Human gamma 1/kappa constant regions) VH: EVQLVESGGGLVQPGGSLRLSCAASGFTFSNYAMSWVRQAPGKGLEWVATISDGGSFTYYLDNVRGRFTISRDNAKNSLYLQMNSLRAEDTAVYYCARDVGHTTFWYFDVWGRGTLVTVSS VL: DIVMTQSPDSLAVSLGERATINCRASKSVSAAGYNFMHWYQQKPGQPPKVLIYKASSLESGVPDRFSGSGSGTDFTLTISSLQAEDVAVYYCLHSREFPFTFGGGTKVEIK" unit_abbreviation="M⁻¹ s⁻¹" test_result=68700

Here is another binder to look at.
# query: kon of entry Humanised 10G8 H0 IGHV3_7 + L1 IGKV4_1 (antibody, V domains shown, built from the stated CDR exchanges; residue limits derived by me) VH: EVQLVESGGGLVQPGGSLRLSCAASGFTFSSYWMSWVRQAPGKGLEWVATISDGGSFTYYLDNVRGRFTISRDNAKNSLYLQMNSLRAEDTAVYYCARDVGHTTFWYFDVWGRGTLVTVSS VL: DIVMTQSPDSLAVSLGERATINCRASKSVSAAGYNFMHWYQQKPGQPPKVLIYWASTRESGVPDRFSGSGSGTDFTLTISSLQAEDVAVYYCLHSREFPFTFGGGTKVEIK
36800

The values you see were collected from patent US20130251724A1.
